# Species: Rattus norvegicus
# Test method notes: Open TG-GATES - Regimen: Daily Repeat
# Type: toxicity, organism-based, Sprague-Dawley
# Design: regimen Daily Repeat, gender Male, age 6 weeks
# Recorded conditions: in vivo, po, 100 mg/kg, […], tissue Plasma, route gavage, dose level Low, time 14 day
Kindly return criterion met if reported LDH is no lower than 80 IU/L; return criterion not met if it is lower.

| Compound | Label value |
| --- | --- |
| CNC(=C[N+](=O)[O-])NCCSCc1ccc(CN(C)C)o1 [RANITIDINE] | criterion met |
| CCOc1ccc(NC(C)=O)cc1 [PHENACETIN] | criterion met |
| COC(=O)C1=C(C)NC(C)=C(C(=O)OC)C1c1ccccc1[N+](=O)[O-] [NIFEDIPINE] | criterion not met |

Query: Decide: is the reported value of LDH for Cc1nnc2n1-c1ccc(Cl)cc1C(c1ccccc1Cl)=NC2 [TRIAZOLAM] equal to or greater than 80 IU/L?
Reply: criterion met

Query: Field entry: O=C(OC[C@H]1O[C@@H](OC(=O)c2cc(O)c(O)c(OC(=O)c3cc(O)c(O)c(O)c3)c2)[C@H](OC(=O)c2cc(O)c(O)c(OC(=O)c3cc(O)c(O)c(O)c3)c2)[C@@H](OC(=O)c2cc(O)c(O)c(OC(=O)c3cc(O)c(O)c(O)c3)c2)[C@@H]1OC(=O)c1cc(O)c(O)c(OC(=O)c2cc(O)c(O)c(O)c2)c1)c1cc(O)c(O)c(OC(=O)c2cc(O)c(O)c(O)c2)c1 [TANNIC ACID]
Reply: criterion not met

Query: Field entry: CN/C(=N/CCSCc1nc[nH]c1C)NC#N [CIMETIDINE]
Reply: criterion met

* * *

# Species: Rattus norvegicus
# Test method notes: Open TG-GATES - Regimen: Single
# Format: toxicity, organism-based, Sprague-Dawley
# Set-up: regimen Single, gender Male, age 6 weeks
# Recorded conditions: in vivo, po, 100 mg/kg, 24 h, route gavage, dose level Low
The following compounds are listed with their measured TERMINAL_BW values.
Only the number, expressed in g, is required.

Query: Using the record for `CN/C(=N/CCSCc1nc[nH]c1C)NC#N` , report its TERMINAL_BW.
Reply: 225.6

* * *

# Organism: Rattus norvegicus
# Test method notes: Open TG-GATES - Regimen: Single
# Assay type: toxicity, organism-based, Sprague-Dawley
# Set-up: regimen Single, gender Male, age 6 weeks
# Recorded conditions: in vivo, po, 100 mg/kg, 6 h, tissue Blood, route gavage, dose level Low
Assay metric: Eos (%)
Only the number, expressed in %, is required.

Examples with their reported Eos follow.
| Entry smiles | Eos [%] |
| --- | --- |
| COC(=O)C1=C(C)NC(C)=C(C(=O)OC)C1c1ccccc1[N+](=O)[O-] | 0.4 |
| O=C(OC[C@H]1O[C@@H](OC(=O)c2cc(O)c(O)c(OC(=O)c3cc(O)c(O)c(O)c3)c2)[C@H](OC(=O)c2cc(O)c(O)c(OC(=O)c3cc(O)c(O)c(O)c3)c2)[C@@H](OC(=O)c2cc(O)c(O)c(OC(=O)c3cc(O)c(O)c(O)c3)c2)[C@@H]1OC(=O)c1cc(O)c(O)c(OC(=O)c2cc(O)c(O)c(O)c2)c1)c1cc(O)c(O)c(OC(=O)c2cc(O)c(O)c(O)c2)c1 | 1 |
| CNC(=C[N+](=O)[O-])NCCSCc1ccc(CN(C)C)o1 | 0.6 |
| CN/C(=N/CCSCc1nc[nH]c1C)NC#N | 1 |

// moving on: another record for Eos
Query: Using the record for `Cc1nnc2n1-c1ccc(Cl)cc1C(c1ccccc1Cl)=NC2` , report its Eos.
Reply: 0.8
